- test.name: E-AB sensor titration curves in working buffer (square wave voltammetry)
- Assay type: binding
- stated.conditions: simple buffered solution
observation.type: signal gain relative to other variants

substance	observation.type	data.value
CA40_2MM: camptothecin aptamer, two mismatches: 5′-ACGCTCTGGACTTGGGTGGGTGGGTTGGGGTACGGTGTGT-3′ (DNA ACGCTCTGGACTTGGGTGGGTGGGTTGGGGTACGGTGTGT; listed as DNA, chemistry not fully specified)	signal gain relative to other variants	greatest signal gain
CA32: truncated camptothecin aptamer: 5′-TCCGGACTTGGGTGGGTGGGTTGGGGTACGGT-3′ (DNA TCCGGACTTGGGTGGGTGGGTTGGGGTACGGT; listed as DNA, chemistry not fully specified)	signal gain relative to other variants	greatest signal gain
CA16: camptothecin aptamer, only the G-quadruplex binding pocket: 5′-GGGTGGGTGGGTTGGG-3′ (chemistry not given here)	signal gain relative to other variants	greatest signal gain
CA28: truncated camptothecin aptamer: 5′-CGGACTTGGGTGGGTGGGTTGGGGTACG-3′ (DNA CGGACTTGGGTGGGTGGGTTGGGGTACG; listed as DNA, chemistry not fully specified)	signal gain relative to other variants	greatest signal gain
